# System: KM12
# assay explanation: NCI tumour cell line growth inhibition, 48 h
The source made the active and inactive calls. No stated cut-off is given here; in the data, active = GI50 up to about 1.1 µM and inactive = higher.
Would you mind telling me the reported GI50 of each entry?

May I ask what GI50 has been recorded for COC1=C(OC)C(=O)c2cc(SC)c(=O)c(SC)cc2C1=O ?
96.4 µM (inactive)

Also need O=C(O)CCSc1ncnc2[nH]cnc12 , thanks.
> 100 µM (inactive)

Also need CC(C)(C)NC(=O)/C(=C\Sc1ccccc1)c1ccc2c(c1)OCO2 , thanks.
32.4 µM (inactive)

Also need Cc1ccc(S(=O)(=O)ON2C(=O)c3c(N)c(C#N)c(-c4ccccc4)c(-c4ccccc4)c3C2=O)cc1 , thanks.
51.1 µM (inactive)

Also need COc1ccc(O)c2c1C(=O)CCCC2=O , thanks.
> 100 µM (inactive)

Also need CC(C)(C)N(Cc1ccc2c(c1)OCO2)C(=O)/C=C\Sc1ccccc1 , thanks.
81.8 µM (inactive)

Also need O=C(Cn1nnc(-c2ccccc2)n1)N/N=C/c1cn(Cc2ccc(Cl)cc2Cl)c2ccccc12 , thanks.
> 100 µM (inactive)

Also need Cc1c(C)c(C)c(CSC(=N)N)c(C)c1C , thanks.
18.4 µM (inactive)

Also need N/C(=N\NC(=O)c1nc2ccccc2s1)c1ccccn1 , thanks.
8.79 µM (inactive)

Also need COC1=CC(c2ccc(Br)[nH]2)=N/C1=C/NCC(C)C , thanks.
1.26 µM (inactive)

Also need c1ccc(COCC23CCN(Cc4ccccc4)C(CC(OCc4ccccc4)C2)S3)cc1 (stereo unspecified) , thanks.
44.1 µM (inactive)

Also need O=C(O)CCSC(CC1(c2ccc(Cl)cc2)NC(=O)CCS1)c1ccccc1 (stereo unspecified) , thanks.
3.56 µM (inactive)

Also need Nc1c(S(=O)(=O)O)cc(S(=O)(=O)O)c2ccc(/N=N/c3ccccc3)c(O)c12 , thanks.
> 100 µM (inactive)

Also need Cc1sc(/N=C/c2c[nH]c3ccccc23)c(C#N)c1C , thanks.
13.7 µM (inactive)

Also need C#CC(O)(c1nc2ccccc2s1)c1nc2ccccc2s1 , thanks.
29.4 µM (inactive)

Also need Cc1cc(C)c(NC(=O)/C=C/c2ccccc2)c(C)c1 , thanks.
> 100 µM (inactive)

Also need COc1ccc(C(O)/C(=N\NC(N)=S)c2nc3ccc([N+](=O)[O-])cc3nc2O)cc1OC (stereo unspecified) , thanks.
> 100 µM (inactive)

Also need Cn1c(-c2ccccc2)cc(-c2ccsc2)c1-c1ccsc1 , thanks.
> 100 µM (inactive)

Also need C1=C2C3=[N+](CCCCC3)CC2Cc2ccsc21 (stereo unspecified) , thanks.
30.4 µM (inactive)

Also need CSc1cc(-c2ccccn2)nc(-c2ccccn2)c1 , thanks.
0.124 µM (active)

Also need CC(C)[C@H]1NC(=O)[C@H]2N=C(O[C@@H]2C)[C@@H]2CCCN2C(=O)[C@H](Cc2ccccc2)NC(=O)[C@@H]2COC(=N2)[C@@H](Cc2ccccc2)NC(=O)[C@@H]2COC1=N2 , thanks.
> 100 µM (inactive)

====

# System: ACHN
# assay explanation: NCI tumour cell line growth inhibition, 48 h
Calls of active or inactive are those of the source. No stated cut-off is given here; in the data, active = GI50 up to about 1.1 µM and inactive = higher.
Would you mind telling me the reported GI50 of each entry?

May I ask what GI50 has been recorded for N#Cc1c(-c2nc3ccccc3s2)c(=O)oc2cc(O)ccc12 ?
25 µM (inactive)

Also need O=C(/C=C/c1ccccc1)NC1C=Nc2ccc(Cl)cc2NC1=O (stereo not given) , thanks.
24.1 µM (inactive)

Also need CN(C)c1ccc(/C=C2\N=C(c3ccccc3)N(/N=C3\C(=O)Nc4ccccc43)C2=O)cc1 , thanks.
65.9 µM (inactive)

Also need O=c1c2cc(I)ccc2nc(SCc2nncs2)n1Cc1ccccc1 , thanks.
9.33 µM (inactive)

Also need N#Cc1c(-c2cccc(Cl)c2)cc(-c2ccc(Cl)cc2)nc1N , thanks.
17.7 µM (inactive)
